// data source = patent US10669235B2

System: MRC5 cells
Test: Cell viability assay in MRC5 cells (MTT)
Settings: 1000 nM
Structures can show the parent of a compound that is named as a salt.
# maps each entry to its Cell viability at 1000 nM (%)
measured-quantity: Cell viability at 1000 nM (%)

molecule | result-value
COC(=O)c1cc2c(cc1C)/C(=C(/Nc1ccc(C(=O)NCCN3CCC(N(C)C)CC3)cc1)c1ccccc1)C(=O)N2 [Example 6] | 91.2
COC(=O)c1cc2c(cc1C)/C(=C(/Nc1ccc(S(=O)(=O)NCCN(C)C)cc1)c1ccccc1)C(=O)N2 [Example 25, formate] | 55.4
COCCN1CCC(NC(=O)c2ccc(N/C(=C3\C(=O)Nc4cc(C(=O)OC)c(C)cc43)c3ccccc3)cc2)CC1 [Example 20] | 87.2
COC(=O)c1cc2c(cc1C)/C(=C(/Nc1ccc(C(=O)NCCN3CCC(F)CC3)cc1)c1ccccc1)C(=O)N2 [Example 28, formate] | 83.6
COC(=O)c1cc2c(cc1C)/C(=C(/Nc1cccc(C(=O)N(C)CCN(C)C)c1)c1ccccc1)C(=O)N2 [Example 16] | 70.6
COC(=O)c1cc2c(cc1C)/C(=C(/Nc1ccc(C(=O)N(CCO)CCN(C)C)cc1)c1ccccc1)C(=O)N2 [Example 32] | 49.4
COC(=O)c1cc2c(cc1C)/C(=C(/Nc1ccc(C(=O)N3CCC(CO)(CN(C)C)CC3)cc1)c1ccccc1)C(=O)N2 [Example 38] | 4.2

---

Assay: Pharmacokinetic measurements in rats (i.v., i.t., oral)
Assay type: in vivo
Conditions: male, CD, rat, lung/plasma, iv; read-out: lung/plasma ratio at time 24 h
Counter-ions that a name gives are not always drawn.
measured-quantity: Kp at 24 h

compound | measured-quantity | result-value
COC(=O)c1cc2c(cc1C)/C(=C(/Nc1ccc(C(=O)NCC3CCN(C)CC3)cc1)c1ccccc1)C(=O)N2 [Example 3, formate] | Kp at 24 h | > 72
COC(=O)c1cc2c(cc1C)/C(=C(/Nc1ccc(C(=O)NCCN3CCNC(=O)C3)cc1)c1ccccc1)C(=O)N2 [Example 9] | Kp at 24 h | > 697

---

# maps each entry to its Ki
Target: PDGFRβ (Homo sapiens (Human))
Sequence (P09619 33-1106): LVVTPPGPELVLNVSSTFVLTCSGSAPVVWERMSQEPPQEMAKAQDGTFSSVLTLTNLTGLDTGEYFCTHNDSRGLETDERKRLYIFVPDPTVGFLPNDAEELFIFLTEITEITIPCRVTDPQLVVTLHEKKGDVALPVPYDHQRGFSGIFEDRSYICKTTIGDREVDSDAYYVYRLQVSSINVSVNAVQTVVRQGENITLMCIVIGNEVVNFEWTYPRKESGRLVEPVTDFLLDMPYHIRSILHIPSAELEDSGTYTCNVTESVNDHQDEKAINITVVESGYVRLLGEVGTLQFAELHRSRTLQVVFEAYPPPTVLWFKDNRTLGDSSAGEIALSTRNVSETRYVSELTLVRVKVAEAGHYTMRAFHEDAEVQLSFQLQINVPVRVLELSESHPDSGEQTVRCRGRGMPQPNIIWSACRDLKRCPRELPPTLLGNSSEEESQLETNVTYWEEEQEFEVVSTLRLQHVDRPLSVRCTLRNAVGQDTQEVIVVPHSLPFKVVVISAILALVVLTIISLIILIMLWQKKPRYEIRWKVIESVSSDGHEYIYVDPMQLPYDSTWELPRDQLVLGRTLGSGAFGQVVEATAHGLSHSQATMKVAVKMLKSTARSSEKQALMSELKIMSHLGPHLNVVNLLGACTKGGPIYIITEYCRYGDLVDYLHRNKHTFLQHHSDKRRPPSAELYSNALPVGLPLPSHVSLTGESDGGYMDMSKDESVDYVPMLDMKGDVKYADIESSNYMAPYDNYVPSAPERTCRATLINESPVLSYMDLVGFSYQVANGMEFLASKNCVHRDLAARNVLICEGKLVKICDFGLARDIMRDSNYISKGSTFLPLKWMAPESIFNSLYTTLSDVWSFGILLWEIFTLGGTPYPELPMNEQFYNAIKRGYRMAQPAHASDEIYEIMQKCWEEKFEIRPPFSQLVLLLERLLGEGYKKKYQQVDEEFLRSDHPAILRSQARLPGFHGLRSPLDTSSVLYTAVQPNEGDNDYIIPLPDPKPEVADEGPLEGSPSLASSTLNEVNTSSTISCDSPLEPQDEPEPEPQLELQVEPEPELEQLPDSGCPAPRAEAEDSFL
Assay: PDGFRβ enzyme inhibition (ADP-Glo assay)
Type: biochemical
Details: mean, n = 2 (nintedanib n = 34)
Structures can show the parent of a compound that is named as a salt.
measured-quantity: Ki (nM)

compound | result-value
COC(=O)c1cc2c(cc1C)/C(=C(/Nc1ccc(C(=O)N3CCC(O)(CN4CCOCC4)CC3)cc1)c1ccccc1)C(=O)N2 | 15.1
COC(=O)c1cc2c(cc1C)/C(=C(/Nc1ccc(C(=O)NCCC(=O)N3CCN(C)CC3)cc1)c1ccccc1)C(=O)N2 | 12.7
COC(=O)c1cc2c(cc1C)/C(=C(/Nc1ccc(C(=O)N(CCO)CCN(C)C)cc1)c1ccccc1)C(=O)N2 | 5.02
COC(=O)c1cc2c(cc1C)/C(=C(/Nc1ccc(C(=O)NCC3(N(C)C)CCC3)cc1)c1ccccc1)C(=O)N2 | 12.8
COC(=O)c1cc2c(cc1C)/C(=C(/Nc1ccc(C(=O)NCC3CCN(C)CC3)cc1)c1ccccc1)C(=O)N2 [Example 3, formate] | 6.86
COC(=O)c1cc2c(cc1C)/C(=C(/Nc1ccc(C(=O)NCCN3CCCNC(=O)C3)cc1)c1ccccc1)C(=O)N2 | 12.6
COC(=O)c1cc2c(cc1C)/C(=C(/Nc1ccc(C(=O)NCCN3CCN(S(C)(=O)=O)CC3)cc1)c1ccccc1)C(=O)N2 | 17.8
COCCN1CCC(NC(=O)c2ccc(N/C(=C3\C(=O)Nc4cc(C(=O)OC)c(C)cc43)c3ccccc3)cc2)CC1 | 19.1
COC(=O)c1cc2c(cc1C)/C(=C(/Nc1ccc(C(=O)NCCN3CCNC(=O)C3)c(F)c1)c1ccccc1)C(=O)N2 | 25.1
COC(=O)c1cc2c(cc1C)/C(=C(/Nc1ccc(C(=O)NCC3(N(C)C)CCOCC3)cc1)c1ccccc1)C(=O)N2 | 15.9
COC(=O)c1cc2c(cc1C)/C(=C(/Nc1ccc(C(=O)NCCN3CCN(C)CC3)cc1)c1ccccc1)C(=O)N2 | 11.6
COC(=O)c1cc2c(cc1C)/C(=C(/Nc1ccc(C(=O)NC3CCN(CCO)CC3)cc1)c1ccccc1)C(=O)N2 | 10.4
COC(=O)c1cc2c(cc1C)/C(=C(/Nc1ccc(C(=O)N3CCCN(CCO)CC3)cc1)c1ccccc1)C(=O)N2 | 6.65
COCCNC(=O)CN1CCN(C(=O)c2ccc(N/C(=C3\C(=O)Nc4cc(C(=O)OC)c(C)cc43)c3ccccc3)cc2)CC1 | 14.1
